Tested on: NCI-H23 lung
assay-remarks: NCI-60 one-dose screen, 48 h (100 = growth as untreated, 0 = no growth, -100 = all killed)
test-context: 10 µM unless noted
This is part of a sample that, as a whole, favours compounds with a hit. Of some 83,000 tested, about 20% had one in any assay.
Below is a list of entries, each paired with its recorded growth value.
measured-property: growth (%)

>>> df
                                    compound  test_result
 0                           COC(OC)c1ccccc1          105
 1  O=C(O)C1CCCN1 (configuration not stated)          104
 2  CCCCCCCCCCCCNC(=O)[C@H]1CSC(c2cc(Br)cs2)N1 (some centres not stated)         18.1
 3  CCc1ccc(-c2ccc(=O)n(-c3ccc(S(N)(=O)=O)cc3)n2)cc1         59.9
 4  Cc1c(C(N)=O)sc2c1c(=O)n(Cc1ccccc1)c1nnc(Nc3ccccc3)n21          101
 5  COc1ccc(C2=CC(c3cc(OC)c(OC)c(OC)c3)NC(=O)N2)cc1OC (configuration not stated)         27.3
 6  Cc1csc(NC(c2ccccc2)c2c(C)nc3ccccn23)n1 (configuration not stated)         95.6
 7           COc1cc(NC(=O)SC2=NCCS2)cc(OC)c1           95
 8  CSc1nc2c(c(=O)[nH]1)C(c1ccc(C)cc1)C=C(C(=O)O)N2 (configuration not stated)         98.9
 9            COc1ccc(CCNC2=CC(=O)CCC2)cc1OC         92.5
10             O=C(/C=C/c1ccccc1)c1cccc(O)c1         96.7
11  COc1ccc(N2CCN(Cc3cc(C(=O)/C=C/c4c[nH]c5ccccc45)ccc3O)CC2)cc1          102
